Hello, the source for this data is the supplement of paper PMC8967900, in case you need it.

Catalogue of selective drug sensitivity score readings, one per entry.
Tested on: RPMI-8402;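 also: ALL cell lines in 384-well plates, five doses spanning 10,000-fold, each plate scaled between vehicle and 100 µmol/L benzalkonium chloride controls, sDSS an adapted area-under-curve metric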
Assay: selective drug sensitivity score (sDSS, relative to normal bone marrow) (sDSS (score)); higher = more potent and effective on the cell line relative to normal bone marrow cells
Details: 72 h
Enter the number alone.

- Molecule: "CN(C)C(=O)c1ccc(S(=O)(=O)c2ccc(NC(=O)[C@@](C)(O)C(F)(F)F)c(Cl)c2)cc1 [AZD7545] (top concentration 10000 nM)"
  Result number: 5.7
- Molecule: "C=CC(=O)Nc1cccc(Oc2nc(Nc3ccc(N4CCN(C)CC4)cc3)nc3ccsc23)c1 [Olmutinib] (top concentration 1000 nM)"
  Result number: -0.02
- Molecule: "CC[C@@]1(O)C(=O)OCc2c1cc1n(c2=O)Cc2cc3c(CN(C)C)c(O)ccc3nc2-1 [Topotecan] (top concentration 10000 nM)"
  Result number: 19.4
- Molecule: "O=C1CCC(N2C(=O)c3ccccc3C2=O)C(=O)N1 (stereo unspecified) [Thalidomide] (top concentration 10000 nM)"
  Result number: -0.14

Q. Bench note: what selective drug sensitivity score did O=C(O)CC[C@H]1CC[C@@](c2cc(F)ccc2F)(S(=O)(=O)c2ccc(Cl)cc2)CC1 [MK-0752] (top concentration 1000 nM) show?
A. 3.2

Q. Recorded selective drug sensitivity score of Cn1cnc2c(F)c(Nc3ccc(Br)cc3Cl)c(C(=O)NOCCO)cc21 [Selumetinib] (top concentration 10000 nM) , please.
A. -4.1
